# EXPERIMENTAL_SYSTEM: MERTK (UniProt Q12866)
# Sequence (Q12866 whole entry, looked up): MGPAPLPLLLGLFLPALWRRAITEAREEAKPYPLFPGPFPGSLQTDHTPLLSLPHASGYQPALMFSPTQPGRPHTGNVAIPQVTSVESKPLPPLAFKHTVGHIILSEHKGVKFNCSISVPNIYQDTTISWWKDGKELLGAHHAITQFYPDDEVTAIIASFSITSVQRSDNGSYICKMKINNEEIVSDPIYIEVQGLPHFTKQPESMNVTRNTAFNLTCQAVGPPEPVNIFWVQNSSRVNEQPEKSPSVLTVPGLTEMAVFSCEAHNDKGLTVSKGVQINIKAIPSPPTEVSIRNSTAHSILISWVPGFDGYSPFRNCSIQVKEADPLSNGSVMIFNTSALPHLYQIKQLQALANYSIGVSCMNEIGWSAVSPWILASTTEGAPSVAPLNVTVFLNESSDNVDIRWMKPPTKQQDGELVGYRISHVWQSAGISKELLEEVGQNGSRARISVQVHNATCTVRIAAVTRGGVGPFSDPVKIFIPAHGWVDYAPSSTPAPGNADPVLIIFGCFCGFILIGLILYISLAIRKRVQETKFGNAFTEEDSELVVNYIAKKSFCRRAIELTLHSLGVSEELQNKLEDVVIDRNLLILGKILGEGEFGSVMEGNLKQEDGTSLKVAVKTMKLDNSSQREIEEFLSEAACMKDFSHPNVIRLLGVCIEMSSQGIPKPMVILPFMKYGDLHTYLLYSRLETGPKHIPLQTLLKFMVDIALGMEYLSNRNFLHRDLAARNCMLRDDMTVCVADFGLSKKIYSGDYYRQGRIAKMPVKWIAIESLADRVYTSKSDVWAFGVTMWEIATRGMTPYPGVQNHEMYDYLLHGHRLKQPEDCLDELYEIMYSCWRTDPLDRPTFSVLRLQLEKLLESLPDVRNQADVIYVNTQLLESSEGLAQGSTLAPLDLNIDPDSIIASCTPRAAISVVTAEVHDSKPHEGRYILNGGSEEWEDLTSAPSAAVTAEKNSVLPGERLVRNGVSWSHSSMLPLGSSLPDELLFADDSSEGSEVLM
# ASSAY_PROTOCOL: phosphorylation enrichment, bacterial display (enrichment ratio); higher = better substrate or ligand; peptides without Tyr show the background;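 also: 11-residue human phosphosite peptides and single-mutation variants displayed on the E. coli surface, counted by deep sequencing, each peptide's frequency after selection divided by its frequency in the unselected input library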;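 also: frequency after pTyr selection over input frequency; kinase dosed for 20-30% of maximal phosphorylation in three min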
Below, each entry is listed with its recorded phosphorylation enrichment.

| SEQUENCE_ENTRY | phosphorylation enrichment |
| --- | --- |
| STKELYEKYMI | 0.412 |
| SVTCTYSRALN [TP53_Y126_P128R] | 0.401 |
| IGCHAYGDQYR [IDH1_Y135_R132C] | 0.384 |
| KVGPGYLGSRG [RET_Y826_G830R] | 0.457 |
| IGGHAYGDQYR [IDH1_Y135_R132G] | 0.357 |
| IRKAEYPFSSE [ATP2C1_Y452] | 0.341 |
| ELANYYKLHHI [AK7_Y391] | 3.36 |
| KHCEDYVFSFN [DSC1_Y846_C848F_YF] | 0.471 |
| QMQAAYQKVVA [HBD_Y131] | 0.412 |
| SRIWVYNHFRC [BRCA2_Y2621_W2626C_YF] | 0.466 |
| IAINKYGVSLI [MYO7A_Y2136] | 0.426 |
| RLLRGYDQSAF [HLA-C_Y137_YF] | 0.443 |
| RGFRVYFTPDS [PTPRF_Y450_YF] | 0.538 |
| GGFTCCCDGKK [PROS1_Y266_Y266C_YF] | 0.468 |
| AVAFVYYKSIG [ADGRL4_Y301] | 0.401 |
| RSSGPYGGGGQ [HNRNPA1_Y341] | 0.625 |
| SLFNGYVFSGM [NEIL3_Y71_V76M_YF] | 0.435 |
| TRLAQYDSNSK [BMX_Y216_S212R] | 0.682 |
| SVSVNYGDLVQ [GRAP_Y101_Q104L] | 0.42 |
| IGRHAYGDQYR [IDH1_Y135] | 0.314 |
| SVTCTYSPAFN [TP53_Y126_L130F] | 0.418 |
| FPCSVYMPDEW [INSR_Y1011_V1012M] | 0.559 |
| QTLTDYDTRFF [CSNK2A3_Y131_I133T_YF] | 0.473 |
| KVQVSYKGDTK [HSPA1A_Y107_E110D] | 0.414 |
| LFQAKYQIRYR [CRLF1_Y272] | 0.465 |
| MKVPVYETPAG [PGM5_Y358] | 5.35 |
| DSDTDYGSGFP [RNASEH2A_Y206_L202S_YF] | 0.455 |
| RGRSTCFWPRP [GAGE12J_Y9_Y9C_YF] | 0.796 |
| QNTGGYYDLYG [PTPN11_Y62_D61G] | 8.88 |
| EALDFYGEVRI [PTEN_Y155_T160I] | 0.494 |
| SVTCTYSPAHN [TP53_Y126_L130H] | 0.663 |
| IKELTYQMEED [MYH7_Y1852_T1854M] | 0.432 |
| MDFRSYPHEFG [RBM10_Y44_R46H_YF] | 0.366 |
| SHPSSYTTHPQ [NIPBL_Y195] | 0.463 |
| SEKISYVYMKR [SSX7_Y48_L43S] | 0.385 |
| AVRFIYTIDGS [DCX_Y105_G100A_YF] | 0.424 |
| DHFNQYEQQKM [CHD7_Y75_YF] | 0.425 |
| IGLHAYGDQYR [IDH1_Y135_R132L] | 0.426 |

The reported numbers originate from the supplement of paper PMC10065799.
